src = patent US20240182536A1

Tested target: T1, IL-18 receptors on HEK-Blue IL-18 reporter cells (InvivoGen) (UniProt Q13478 19-541; O95256 20-599)
T1 sequence (looked up) 1: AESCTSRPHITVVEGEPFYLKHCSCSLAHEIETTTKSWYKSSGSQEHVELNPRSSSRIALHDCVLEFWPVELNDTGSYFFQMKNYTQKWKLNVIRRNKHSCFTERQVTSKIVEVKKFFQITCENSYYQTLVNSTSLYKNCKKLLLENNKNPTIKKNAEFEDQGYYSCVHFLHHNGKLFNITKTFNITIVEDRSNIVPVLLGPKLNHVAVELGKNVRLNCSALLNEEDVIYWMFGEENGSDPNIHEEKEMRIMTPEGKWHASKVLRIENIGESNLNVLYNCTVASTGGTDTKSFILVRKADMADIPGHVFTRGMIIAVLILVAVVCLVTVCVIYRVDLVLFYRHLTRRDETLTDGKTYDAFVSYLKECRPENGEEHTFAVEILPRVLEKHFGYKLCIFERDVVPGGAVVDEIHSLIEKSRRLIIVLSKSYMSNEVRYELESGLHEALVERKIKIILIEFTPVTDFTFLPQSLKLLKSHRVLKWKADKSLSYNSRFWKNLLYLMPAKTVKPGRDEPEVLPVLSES
T1 sequence (looked up) 2: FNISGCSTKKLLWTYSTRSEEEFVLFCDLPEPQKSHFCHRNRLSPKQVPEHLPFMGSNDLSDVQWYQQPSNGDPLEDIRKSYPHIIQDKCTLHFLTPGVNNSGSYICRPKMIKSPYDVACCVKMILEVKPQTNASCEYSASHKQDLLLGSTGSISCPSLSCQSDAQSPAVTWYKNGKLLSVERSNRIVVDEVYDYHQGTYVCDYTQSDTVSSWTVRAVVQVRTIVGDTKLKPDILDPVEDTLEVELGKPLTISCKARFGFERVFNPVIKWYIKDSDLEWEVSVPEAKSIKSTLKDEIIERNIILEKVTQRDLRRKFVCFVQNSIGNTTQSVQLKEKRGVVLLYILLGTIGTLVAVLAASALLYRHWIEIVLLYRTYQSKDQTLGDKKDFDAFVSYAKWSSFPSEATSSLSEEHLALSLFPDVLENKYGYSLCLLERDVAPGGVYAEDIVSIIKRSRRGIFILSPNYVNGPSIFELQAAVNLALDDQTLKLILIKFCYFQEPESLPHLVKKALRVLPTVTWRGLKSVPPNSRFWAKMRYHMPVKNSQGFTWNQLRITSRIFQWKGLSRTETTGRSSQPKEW
Run description: cell-based or functional assay
Observed property: HEK-Blue Ec50 (pM), -IL-18BP
// note: answer is a bare numeric in pM

Study these solved cases before continuing.
# Binder, Readout unit, HEK-Blue Ec50 (pM), -IL-18BP
records = [
    ("Comparator 1 (human IL-18 variant M51K, K53S, Q56L, P57A, M60L, S105D, D110S, N111R) (ligand) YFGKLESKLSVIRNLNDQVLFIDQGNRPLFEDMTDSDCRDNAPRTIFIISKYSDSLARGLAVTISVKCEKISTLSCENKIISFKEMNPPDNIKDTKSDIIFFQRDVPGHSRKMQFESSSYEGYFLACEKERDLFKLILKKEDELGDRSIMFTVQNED", "pM", 0.15),
    ("IL-18 variant G3A, K53S (ligand) YFAKLESKLSVIRNLNDQVLFIDQGNRPLFEDMTDSDMRDNAPRTIFIISMYSDSQPRGMAVTISVKSEKISTLSSENKIISFKEMNPPDNIKDTKSDIIFFQRSVPGHDNKMQFESSSYEGYFLASEKERDLFKLILKKEDELGDRSIMFTVQNED", "pM", 1.69),
    ("IL-18 variant G3T, K53S (ligand) YFTKLESKLSVIRNLNDQVLFIDQGNRPLFEDMTDSDMRDNAPRTIFIISMYSDSQPRGMAVTISVKSEKISTLSSENKIISFKEMNPPDNIKDTKSDIIFFQRSVPGHDNKMQFESSSYEGYFLASEKERDLFKLILKKEDELGDRSIMFTVQNED", "pM", 2.5),
    ("IL-18 variant G3S, K53S (ligand) YFSKLESKLSVIRNLNDQVLFIDQGNRPLFEDMTDSDMRDNAPRTIFIISMYSDSQPRGMAVTISVKSEKISTLSSENKIISFKEMNPPDNIKDTKSDIIFFQRSVPGHDNKMQFESSSYEGYFLASEKERDLFKLILKKEDELGDRSIMFTVQNED", "pM", 2.06),
    ("IL-18 variant G3E, K53S (ligand) YFEKLESKLSVIRNLNDQVLFIDQGNRPLFEDMTDSDMRDNAPRTIFIISMYSDSQPRGMAVTISVKSEKISTLSSENKIISFKEMNPPDNIKDTKSDIIFFQRSVPGHDNKMQFESSSYEGYFLASEKERDLFKLILKKEDELGDRSIMFTVQNED", "pM", 2.69),
]

Q: What HEK-Blue Ec50 (pM), -IL-18BP value was documented for this binder, IL-18 variant G3R, K53S (ligand) YFRKLESKLSVIRNLNDQVLFIDQGNRPLFEDMTDSDMRDNAPRTIFIISMYSDSQPRGMAVTISVKSEKISTLSSENKIISFKEMNPPDNIKDTKSDIIFFQRSVPGHDNKMQFESSSYEGYFLASEKERDLFKLILKKEDELGDRSIMFTVQNED ?
Result: 0.31

Q: What HEK-Blue Ec50 (pM), -IL-18BP value was documented for this binder, IL-18 variant G3F, K53S (ligand) YFFKLESKLSVIRNLNDQVLFIDQGNRPLFEDMTDSDMRDNAPRTIFIISMYSDSQPRGMAVTISVKSEKISTLSSENKIISFKEMNPPDNIKDTKSDIIFFQRSVPGHDNKMQFESSSYEGYFLASEKERDLFKLILKKEDELGDRSIMFTVQNED ?
Result: 3.39
